- System: Clostridium perfringens
- method notes: Activity at Clostridium perfringens sialidase assessed as 4-methylumbelliferyl released at 125 uM for 1 hr by fluorescence assay relative to 4-Methylcoumarin-7-yl 5-acetamido-3,5-dideoxy-alpha-D-glycero-D-galacto-2-nonulopyranosidonic acid
Active and inactive are the calls of the source. No cut-off for these calls is given here.

{"compound structure string": "Cc1cc(=O)oc2cc(O[C@]3(C(=O)O)C[C@H](O)[C@@H](NC(=O)CC(F)(F)F)[C@H]([C@H](O)[C@H](O)CO)O3)ccc12", "Activity": "Active"}
{"compound structure string": "CC(F)(F)F.Cc1cc(=O)oc2cc(O[C@]3(C(=O)O)C[C@H](O)[C@@H](NC(=O)CO)[C@H]([C@H](O)[C@H](O)CO)O3)ccc12", "Activity": "6%"}
{"compound structure string": "Cc1cc(=O)oc2cc(O[C@]3(C(=O)O)C[C@H](O)[C@@H](NC(=O)C(C)C)[C@H]([C@H](O)[C@H](O)CO)O3)ccc12", "Activity": "Active"}
{"compound structure string": "Cc1cc(=O)oc2cc(O[C@]3(C(=O)O)C[C@H](O)[C@@H](NC(=O)CF)[C@H]([C@H](O)[C@H](O)CO)O3)ccc12", "Activity": "6%"}
